Target: Spermidine/spermine N(1)-acetyltransferase (SAT) (Mus musculus) (UniProt Q6P8J2+P48026)
Sequence (P48026 whole entry, looked up): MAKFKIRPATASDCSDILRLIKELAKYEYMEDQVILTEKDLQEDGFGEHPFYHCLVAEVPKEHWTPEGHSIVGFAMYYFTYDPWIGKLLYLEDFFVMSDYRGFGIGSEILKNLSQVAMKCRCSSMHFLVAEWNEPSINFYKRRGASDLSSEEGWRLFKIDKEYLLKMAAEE
Sequence (Q6P8J2 whole entry, looked up): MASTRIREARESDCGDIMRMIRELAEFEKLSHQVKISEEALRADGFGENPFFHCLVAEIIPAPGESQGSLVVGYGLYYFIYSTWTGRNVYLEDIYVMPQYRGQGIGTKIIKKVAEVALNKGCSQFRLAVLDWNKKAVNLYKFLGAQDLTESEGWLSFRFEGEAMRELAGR
Assay: Effect on Spermidine/Spermine-Acetyltransferase (SSAT ) at 10 uM at 48 hour in L1210 cells
Type: functional, cell-based
# reported SSAT; entries follow
property label: SSAT

structure_smiles_string=CCCNCCCNCCCNCCC property_label=SSAT reported=220%
structure_smiles_string=CCCNCCCCCNCCCCCNCCC property_label=SSAT reported=90%
structure_smiles_string=CNCCCCCNCCCCCNC property_label=SSAT reported=90%
structure_smiles_string=CCNCCCNCCCCN property_label=SSAT reported=430%
structure_smiles_string=CCNCCCCCNCCCCCNCC property_label=SSAT reported=90%
structure_smiles_string=CCCNCCCCNCCCCNCCC property_label=SSAT reported=420%
structure_smiles_string=CCCNCCCNCCCCN property_label=SSAT reported=1200%
structure_smiles_string=CCNCCCCCNCCCCNCC property_label=SSAT reported=120%
structure_smiles_string=CCNCCCCNCCCN property_label=SSAT reported=400%

----------
Biological target: S-adenosylmethionine decarboxylase proenzyme 1 (Mus musculus) (UniProt P0DMN7)
Sequence (P0DMN7 whole entry): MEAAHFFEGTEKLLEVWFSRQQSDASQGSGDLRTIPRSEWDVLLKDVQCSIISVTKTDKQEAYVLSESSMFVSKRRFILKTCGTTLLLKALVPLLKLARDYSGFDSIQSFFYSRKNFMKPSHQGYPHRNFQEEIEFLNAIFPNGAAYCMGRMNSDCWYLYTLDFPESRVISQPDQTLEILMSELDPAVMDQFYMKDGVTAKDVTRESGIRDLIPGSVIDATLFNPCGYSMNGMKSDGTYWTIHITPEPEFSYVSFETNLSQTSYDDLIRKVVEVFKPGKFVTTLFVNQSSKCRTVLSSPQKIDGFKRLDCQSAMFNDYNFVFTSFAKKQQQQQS
Assay: Effect on S-Adenosyl-methionine decarboxylase (AdoMetDC) tested at 1 uM at 6 hour in L1210 cells
Type: functional, cell-based
Label scheme for AdoMetDC: lower than 70% is class 0, 70% and above is class 1.

structure_smiles_string=CCNCCCNCCCNCC group="class 0"
structure_smiles_string=CCCNCCCNCCCNCCC group="class 1"
structure_smiles_string=NCCCCCNCCCCCN group="class 1"
structure_smiles_string=CCCNCCCCCNCCCCNCCC group="class 1"
structure_smiles_string=CNCCCCNCCCCNC group="class 1"
structure_smiles_string=CCNCCCNCCCN group="class 0"
structure_smiles_string=CCCNCCCNCCCCN group="class 0"
structure_smiles_string=NCCCCCNCCCCN group="class 0"
structure_smiles_string=CCNCCCCNCCCN group="class 0"
structure_smiles_string=CCCNCCCCNCCCNCCC group="class 1"
structure_smiles_string=NCCCNCCCN group="class 0"
structure_smiles_string=CCNCCCCNCCCCNCC group="class 1"
structure_smiles_string=NCCCCNCCCCN group="class 0"

----------
Target: Spermidine/spermine N(1)-acetyltransferase (SAT) (Mus musculus) (UniProt Q6P8J2+P48026)
Assay: Effect on Spermidine/Spermine-Acetyltransferase (SSAT ) at 10 uM at 48 hour in L1210 cells
Assay type: functional, cell-based
property label: SSAT (%)

structure_smiles_string=CCCNCCCCNCCCN experimental_target="Spermidine/spermine N(1)-acetyltransferase (SAT) (Mus musculus) (UniProt Q6P8J2+P48026)" property_label=SSAT unit_spec=% reported=500
structure_smiles_string=NCCCCNCCCCN experimental_target="Spermidine/spermine N(1)-acetyltransferase (SAT) (Mus musculus) (UniProt Q6P8J2+P48026)" property_label=SSAT unit_spec=% reported=430
structure_smiles_string=CNCCCCNCCCCNC experimental_target="Spermidine/spermine N(1)-acetyltransferase (SAT) (Mus musculus) (UniProt Q6P8J2+P48026)" property_label=SSAT unit_spec=% reported=510
structure_smiles_string=CCCNCCCCNCCCCN experimental_target="Spermidine/spermine N(1)-acetyltransferase (SAT) (Mus musculus) (UniProt Q6P8J2+P48026)" property_label=SSAT unit_spec=% reported=570
structure_smiles_string=CCNCCCCNCCCNCC experimental_target="Spermidine/spermine N(1)-acetyltransferase (SAT) (Mus musculus) (UniProt Q6P8J2+P48026)" property_label=SSAT unit_spec=% reported=1380

All figures here come from ChEMBL document CHEMBL1130028.
